test: Phase solubility of prasugrel in aqueous SBE6.5-β-CD or HP4.3-β-CD at pH 4; type: physicochemical; details: aqueous solution, pH 4, aqueous with cosolvent or surfactant or cyclodextrin, thermodynamic from solid, Prasugrel Solubility w/ SBE6.5-β-CD, SBE6.5-β-CD 5% w/v
READOUT: solubility (µg/mL)

{"columns": ["MOLECULE", "UNITS LABEL", "REPORTED"],
 "data": [
  ["CC(=O)Oc1cc2c(s1)CCN(C(C(=O)C1CC1)c1ccccc1F)C2 (racemic) [Prasugrel]", "µg/mL", 268]
]}

###

experiment: Phase solubility of prasugrel in aqueous SBE6.5-β-CD or HP4.3-β-CD at pH 4; assay type: physicochemical; conditions: aqueous solution, pH 4, aqueous with cosolvent or surfactant or cyclodextrin, thermodynamic from solid, Prasugrel Solubility w/ SBE6.5-β-CD, SBE6.5-β-CD 20% w/v

{"columns": ["MOLECULE", "solubility"],
 "data": [
  ["CC(=O)Oc1cc2c(s1)CCN(C(C(=O)C1CC1)c1ccccc1F)C2 (racemic)", "580 µg/mL"]
]}

###

assay: Phase solubility of prasugrel in aqueous SBE6.5-β-CD at pH 7.4; type: physicochemical; conditions: aqueous solution, pH 7.4, aqueous with cosolvent or surfactant or cyclodextrin, thermodynamic from solid, Prasugrel Solubility, SBE6.5-β-CD 10% w/v
READOUT: solubility (µg/mL)

{"columns": ["COMPOUND", "READOUT", "REPORTED"],
 "data": [
  ["CC(=O)Oc1cc2c(s1)CCN(C(C(=O)C1CC1)c1ccccc1F)C2 (racemic) [Prasugrel]", "solubility", 124]
]}

###

experiment: Phase solubility of prasugrel in aqueous SBE6.5-β-CD or HP4.3-β-CD at pH 4; assay type: physicochemical; details: aqueous solution, pH 4, aqueous with cosolvent or surfactant or cyclodextrin, thermodynamic from solid, Prasugrel Solubility w/ HP4.3-β-CD, HP4.3-β-CD 10% w/v

{"columns": ["COMPOUND", "solubility (µg/mL)"],
 "data": [
  ["CC(=O)Oc1cc2c(s1)CCN(C(C(=O)C1CC1)c1ccccc1F)C2 (racemic)", 474]
]}

###

assay: Phase solubility of prasugrel in aqueous SBE6.5-β-CD or HP4.3-β-CD at pH 4; format: physicochemical; conditions: aqueous solution, pH 4, aqueous buffer, thermodynamic from solid, Prasugrel Solubility w/ HP4.3-β-CD, cyclodextrin derivative 0% w/v
READOUT: solubility

{"columns": ["COMPOUND", "READOUT", "REPORTED"],
 "data": [
  ["CC(=O)Oc1cc2c(s1)CCN(C(C(=O)C1CC1)c1ccccc1F)C2 (racemic)", "solubility", "206 µg/mL"]
]}

###

experiment: Phase solubility of prasugrel in aqueous SBE6.5-β-CD at pH 7.4; assay type: physicochemical; settings: aqueous solution, pH 7.4, aqueous with cosolvent or surfactant or cyclodextrin, thermodynamic from solid, Prasugrel Solubility, SBE6.5-β-CD 30% w/v

{"columns": ["COMPOUND", "UNITS LABEL", "solubility"],
 "data": [
  ["CC(=O)Oc1cc2c(s1)CCN(C(C(=O)C1CC1)c1ccccc1F)C2 (racemic) [Prasugrel]", "µg/mL", 379]
]}

###

test: Phase solubility of prasugrel in aqueous SBE6.5-β-CD at pH 7.4; assay type: physicochemical; settings: aqueous solution, pH 7.4, aqueous with cosolvent or surfactant or cyclodextrin, thermodynamic from solid, Prasugrel Solubility, SBE6.5-β-CD 20% w/v

{"columns": ["MOLECULE", "UNITS LABEL", "solubility"],
 "data": [
  ["CC(=O)Oc1cc2c(s1)CCN(C(C(=O)C1CC1)c1ccccc1F)C2 (racemic)", "µg/mL", 252]
]}
